Recorded Kd values for a group of binders are listed next.
Target: T1, human complement component C5 (human, UniProt P01031 19-673; P01031 678-1676)
T1 construct: mature; Mature C5 is a disulphide-linked beta and alpha chain cut from one precursor; Terbium-labelled in the FRET assays, biotinylated in part of the phage ELISA; also called human C5; C5-Tb
T1 sequence (P01031 19-673 limits assumed, chain 1 of 2): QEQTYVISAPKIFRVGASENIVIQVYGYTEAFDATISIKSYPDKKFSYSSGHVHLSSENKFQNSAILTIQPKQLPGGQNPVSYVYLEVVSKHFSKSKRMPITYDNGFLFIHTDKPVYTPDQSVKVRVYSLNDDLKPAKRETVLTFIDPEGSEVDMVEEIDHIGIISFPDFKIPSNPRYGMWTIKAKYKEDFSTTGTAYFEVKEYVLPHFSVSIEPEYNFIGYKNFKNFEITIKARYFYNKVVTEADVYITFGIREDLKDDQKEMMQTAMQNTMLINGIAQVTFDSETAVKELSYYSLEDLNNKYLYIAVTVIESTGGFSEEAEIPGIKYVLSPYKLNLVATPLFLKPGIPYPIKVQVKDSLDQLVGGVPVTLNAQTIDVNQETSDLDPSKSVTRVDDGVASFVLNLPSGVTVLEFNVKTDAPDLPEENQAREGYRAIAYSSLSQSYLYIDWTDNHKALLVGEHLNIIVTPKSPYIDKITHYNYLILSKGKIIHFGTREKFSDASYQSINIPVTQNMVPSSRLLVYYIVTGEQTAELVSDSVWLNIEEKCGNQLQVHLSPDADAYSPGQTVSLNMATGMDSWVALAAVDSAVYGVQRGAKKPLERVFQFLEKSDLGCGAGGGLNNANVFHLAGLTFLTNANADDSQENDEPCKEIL
T1 sequence (P01031 678-1676 limits assumed, chain 2 of 2): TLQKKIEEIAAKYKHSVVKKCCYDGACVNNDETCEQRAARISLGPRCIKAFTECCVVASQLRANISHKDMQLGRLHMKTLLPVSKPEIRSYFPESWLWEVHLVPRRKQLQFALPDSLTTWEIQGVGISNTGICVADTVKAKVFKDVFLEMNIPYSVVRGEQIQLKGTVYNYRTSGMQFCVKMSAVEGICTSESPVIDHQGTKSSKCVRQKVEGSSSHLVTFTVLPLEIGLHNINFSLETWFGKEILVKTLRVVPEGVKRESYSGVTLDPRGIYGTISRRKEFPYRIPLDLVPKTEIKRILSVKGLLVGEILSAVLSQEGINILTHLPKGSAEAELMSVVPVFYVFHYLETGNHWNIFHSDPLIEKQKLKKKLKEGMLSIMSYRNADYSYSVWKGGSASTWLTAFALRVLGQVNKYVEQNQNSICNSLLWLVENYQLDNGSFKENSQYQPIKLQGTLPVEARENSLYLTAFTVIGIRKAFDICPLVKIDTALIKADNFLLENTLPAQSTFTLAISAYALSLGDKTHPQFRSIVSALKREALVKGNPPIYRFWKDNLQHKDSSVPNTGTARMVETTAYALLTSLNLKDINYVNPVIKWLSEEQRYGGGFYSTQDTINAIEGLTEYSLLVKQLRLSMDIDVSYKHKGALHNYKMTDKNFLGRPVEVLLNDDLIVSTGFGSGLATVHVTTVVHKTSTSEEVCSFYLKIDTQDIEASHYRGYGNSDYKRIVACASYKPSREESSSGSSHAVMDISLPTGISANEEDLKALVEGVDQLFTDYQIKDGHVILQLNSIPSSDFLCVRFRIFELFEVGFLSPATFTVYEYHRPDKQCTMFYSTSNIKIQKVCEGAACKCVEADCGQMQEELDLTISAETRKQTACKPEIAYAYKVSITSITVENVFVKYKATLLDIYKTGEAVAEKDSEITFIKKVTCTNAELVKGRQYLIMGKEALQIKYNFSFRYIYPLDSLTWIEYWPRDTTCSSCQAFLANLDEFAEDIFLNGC
Assay: SPR (Biacore), C5, mean of n=3
Provide the reading as a plain figure in nM.

>  <Binder>
K57 ultralong CDR-H3-hC3nb1 (bispecific antibody, not shown: a dimerising Fc or GST, tied to the label 'hC3Nb1 N-Term' on that ground; also called hC3Nb1 N-Term) VHH: TTVHQRTIKSGCPPGYKSGVDCSPGSECKWGCYAVDGRRYGGYGADSGVGSTYTHEFYVDAWGQGSSSSGSSSSGQVQLVETGGGLVQAGGSLRLSCAASGSIFSLNAMGWFRQAPGKEREFVATINRSGGRTYYADSVKGRFTISRDNGKNMVYLQMHSLKPEDTAIYYCAAGTGWSPQTDNEYNYWGQGTQVTVSS

>  <Meas Value>
0.192

$$$$

Now look at this entry.
Which Kd reading was recorded for the binder hC3nb1-K57 loop 3 with C-terminal single-chain Fc tag (bispecific antibody, not shown: a dimerising Fc or GST, also called hC3Nb1 Loop 3) VHH: QVQLVETGGGLVQAGGSLRLSCAASGSIFSLNAMGWFRQAPGKEREFVATINRSGGRTYYADSVKGSGGGSGCPPGYKSGVDCSPGSECKWGCYAVDGRRYGGYGADSGVSGGGSRFTISRDNGKNMVYLQMHSLKPEDTAIYYCAAGTGWSPQTDNEYNYWGQGTQVTVSS ? 0.596
